Hello, the source for this data is patent US10738028B2, in case you need it.

# Test system: Enterococcus faecalis (EFA)
# test-protocol: MIC, two-fold agar dilution (CLSI), clinical isolates
# Assay type: cell-based
# condition-details: strain EFA 15-3
Threshold check on MIC (anti-bacterial activity): strictly below 2 µg/mL is true (1); on or above 2 µg/mL is false (0).

CCCC[C@H](CN(O)C=O)C(=O)N1CC2(CC2)C[C@H]1C(=O)Nc1cnccn1 true (1)
CCCC[C@H](CN(O)C=O)C(=O)N1CC2(CC2)C[C@H]1C(=O)NC1CC1 false (0)
CCCC[C@H](CN(O)C=O)C(=O)N1CC2(CC2)C[C@H]1C(=O)Nc1nccs1 true (1)
CCCC[C@H](CN(O)C=O)C(=O)N1CC2(CC2)C[C@H]1C(=O)Nc1nncs1 true (1)
CCCC[C@H](CN(O)C=O)C(=O)N1CC2(CC2)C[C@H]1C(=O)Nc1ccncn1 true (1)
CCCC[C@H](CN(O)C=O)C(=O)N1CC2(CC2)C[C@H]1c1nc2ccccc2n1CCN(C)C false (0)
Cc1cnc(NC(=O)[C@@H]2CC3(CC3)CN2C(=O)[C@H](CC2CCCC2)CN(O)C=O)s1 true (1)
CC(C)(C)c1cc(NC(=O)[C@@H]2CC3(CC3)CN2C(=O)[C@H](CC2CCCC2)CN(O)C=O)no1 true (1)
O=CN(O)C[C@@H](CC1CCCC1)C(=O)N1CC2(CC2)C[C@H]1C(=O)Nc1ncco1 false (0)
O=CN(O)C[C@@H](CC1CCCC1)C(=O)N1CC2(CC2)C[C@H]1C(=O)N1CCS(=O)(=O)CC1 false (0)
O=CN(O)C[C@@H](CC1CCCC1)C(=O)N1CC2(CC2)C[C@H]1C(=O)NC1CC1 false (0)
O=CN(O)C[C@@H](CC1CCCC1)C(=O)N1CC2(CC2)C[C@H]1C(=O)Nc1ccno1 false (0)
O=CN(O)C[C@@H](CC1CCCC1)C(=O)N1CC2(CC2)C[C@H]1C(=O)Nc1cnccn1 true (1)
CCCC[C@H](CN(O)C=O)C(=O)N1CC2(CC2)C[C@H]1C(=O)Nc1nc(C)cs1 false (0)
O=CN(O)C[C@@H](CC1CCCC1)C(=O)N1CC2(CC2)C[C@H]1C(=O)Nc1cc[nH]n1 false (0)
CCCC[C@H](CN(O)C=O)C(=O)N1CC2(CC2)C[C@H]1C(=O)Nc1cc(C)on1 true (1)
Cc1cc(NC(=O)[C@@H]2CC3(CC3)CN2C(=O)[C@H](CC2CCCC2)CN(O)C=O)no1 true (1)
O=CN(O)C[C@@H](CC1CCCC1)C(=O)N1CC2(CC2)C[C@H]1C(=O)Nc1ccc(N2CCOCC2)cc1 true (1)
O=CN(O)C[C@@H](CC1CCCC1)C(=O)N1CC2(CC2)C[C@H]1C(=O)Nc1ncccc1F false (0)
Cc1csc(NC(=O)[C@@H]2CC3(CC3)CN2C(=O)[C@H](CC2CCCC2)CN(O)C=O)n1 true (1)

###

# Test system: Enterococcus faecalis (EFA)
# test-protocol: MIC, two-fold agar dilution (CLSI), clinical isolates
# Format: cell-based
# condition-details: strain EFA 15-9
Listing of entries alongside the reported log10 Anti-bacterial activity (MIC).
readout-kind: log10 Anti-bacterial activity (MIC) (log10 of the value in µg/mL)

compound	log10 Anti-bacterial activity (MIC)
O=C(C[C@@H](CC1CCCC1)C(=O)N1CC2(CC2)C[C@H]1C(=O)Nc1ccno1)NO	0.00
O=C(C[C@@H](CC1CCCC1)C(=O)N1CC2(CC2)C[C@H]1C(=O)Nc1ncccc1F)NO	0.90
O=C(C[C@@H](CC1CCCC1)C(=O)N1CC2(CC2)C[C@H]1C(=O)Nc1cccnn1)NO	1.20
O=C(C[C@@H](CC1CCCC1)C(=O)N1CC2(CC2)C[C@H]1C(=O)Nc1nc(C(F)(F)F)cs1)NO	0.30
O=C(C[C@@H](CC1CCCC1)C(=O)N1CC2(CC2)C[C@H]1C(=O)NC1CC1)NO	1.51
CCCC[C@H](CC(=O)NO)C(=O)N1CC2(CCCC2)C[C@H]1C(=O)Nc1ncc(C)s1	1.51
Cc1cc(NC(=O)[C@@H]2CC3(CC3)CN2C(=O)[C@@H](CC(=O)NO)CC2CCCC2)no1	0.00
CCCC[C@H](CC(=O)NO)C(=O)N1CC2(CCCC2)C[C@H]1C(=O)Nc1cnccn1	1.20
CCCC[C@H](CN(O)C=O)C(=O)N1CCC[C@H]1C(=O)Nc1ccc(F)c[n+]1[O-] [LBM415, reference compound]	2.11
O=C(C[C@@H](CC1CCCC1)C(=O)N1CC2(CC2)C[C@H]1C(=O)Nc1nccs1)NO	0.30
C[C@H]1COc2c(N3CCN(C)CC3)c(F)cc3c(=O)c(C(=O)O)cn1c23 [levofloxacin, reference compound]	2.11
